- systemUnderTest: T1, ZFP SBS#1326 (synthetic)
- T1 chain: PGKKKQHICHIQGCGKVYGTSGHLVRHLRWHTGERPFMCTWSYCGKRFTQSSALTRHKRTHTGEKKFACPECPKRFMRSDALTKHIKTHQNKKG
- assay: EMSA
- conditionLabel: tags: MBP fusion
property: pKd
Value format note: pKd is -log10 of concentration (mol/L); just state the number.

Note to self: pKd recorded for TTGGTTGGT (dsDNA) DNA 1: TTGGTTGGT DNA 2: ACCAACCAA was 8.36
